- reported.conditions: in ethanol, 298.15 K
endpoint: solubility (mole fraction)
Please give the numeric answer without any surrounding text.

Recorded solubility (mole fraction) for CONC(=O)Nc1ccc(-c2sc3c(c2CN(C)C)c(=O)n(-c2ccc(OC)nn2)c(=O)n3Cc2c(F)cccc2F)cc1 , please? 0.000134

----------
- reported.conditions: in methanol, 318.15 K
endpoint: solubility (mole fraction)

Recorded solubility (mole fraction) for CONC(=O)Nc1ccc(-c2sc3c(c2CN(C)C)c(=O)n(-c2ccc(OC)nn2)c(=O)n3Cc2c(F)cccc2F)cc1 , please? 0.000713

----------
- reported.conditions: in isopropanol, 308.15 K
endpoint: solubility (mole fraction)
Please give the numeric answer without any surrounding text.

Recorded solubility (mole fraction) for CONC(=O)Nc1ccc(-c2sc3c(c2CN(C)C)c(=O)n(-c2ccc(OC)nn2)c(=O)n3Cc2c(F)cccc2F)cc1 , please? 0.000103

----------
- reported.conditions: in ethyl acetate, 323.15 K
endpoint: solubility (mole fraction)

Recorded solubility (mole fraction) for CONC(=O)Nc1ccc(-c2sc3c(c2CN(C)C)c(=O)n(-c2ccc(OC)nn2)c(=O)n3Cc2c(F)cccc2F)cc1 , please? 0.000576

----------
- reported.conditions: in ethanol, 323.15 K
endpoint: solubility (mole fraction)
Please give the numeric answer without any surrounding text.

Recorded solubility (mole fraction) for CONC(=O)Nc1ccc(-c2sc3c(c2CN(C)C)c(=O)n(-c2ccc(OC)nn2)c(=O)n3Cc2c(F)cccc2F)cc1 , please? 0.000301

----------
- reported.conditions: in ethyl acetate, 303.15 K
endpoint: solubility (mole fraction)
Please give the numeric answer without any surrounding text.

Recorded solubility (mole fraction) for CONC(=O)Nc1ccc(-c2sc3c(c2CN(C)C)c(=O)n(-c2ccc(OC)nn2)c(=O)n3Cc2c(F)cccc2F)cc1 , please? 0.0004

----------
- reported.conditions: in ethyl acetate, 313.15 K
endpoint: solubility (mole fraction)

Recorded solubility (mole fraction) for CONC(=O)Nc1ccc(-c2sc3c(c2CN(C)C)c(=O)n(-c2ccc(OC)nn2)c(=O)n3Cc2c(F)cccc2F)cc1 , please? 0.000505

----------
- reported.conditions: in isopropanol, 298.15 K
endpoint: solubility (mole fraction)
Please give the numeric answer without any surrounding text.

Recorded solubility (mole fraction) for CONC(=O)Nc1ccc(-c2sc3c(c2CN(C)C)c(=O)n(-c2ccc(OC)nn2)c(=O)n3Cc2c(F)cccc2F)cc1 , please? 6.6e-05

----------
- reported.conditions: in methanol, 303.15 K
endpoint: solubility (mole fraction)
Please give the numeric answer without any surrounding text.

Recorded solubility (mole fraction) for CONC(=O)Nc1ccc(-c2sc3c(c2CN(C)C)c(=O)n(-c2ccc(OC)nn2)c(=O)n3Cc2c(F)cccc2F)cc1 , please? 0.00051

----------
- reported.conditions: in ethyl acetate, 298.15 K
endpoint: solubility (mole fraction)
Please give the numeric answer without any surrounding text.

Recorded solubility (mole fraction) for CONC(=O)Nc1ccc(-c2sc3c(c2CN(C)C)c(=O)n(-c2ccc(OC)nn2)c(=O)n3Cc2c(F)cccc2F)cc1 , please? 0.000368

----------
- reported.conditions: in methanol, 298.15 K
endpoint: solubility (mole fraction)
Please give the numeric answer without any surrounding text.

Recorded solubility (mole fraction) for CONC(=O)Nc1ccc(-c2sc3c(c2CN(C)C)c(=O)n(-c2ccc(OC)nn2)c(=O)n3Cc2c(F)cccc2F)cc1 , please? 0.000438
